src = ChEMBL document CHEMBL4371025

Experiment: Intrinsic metabolic stability in rat liver microsomes assessed as metabolic turnover over per mg protein at 1 uM preincubated for 5 mins followed by NADPH cofactor addition and measured after 30 mins by LC-MS/MS analysis
Assay type: ADME, Microsome
Assay Context: 0.5 h
Readout Type: Drug metabolism (nmol/min/mg)
Quick note: give the figure in nmol/min/mg, leave out the unit.

Answered examples (3):
O=C(NC1CCC(=Cc2cccc(Oc3ccc(C(F)(F)F)cn3)c2)CC1)c1cncnc1 (racemic) ... 0.07
O=C(NC1CCC(=Cc2cccc(Oc3ccc(C(F)(F)F)cn3)c2)CC1)c1cnc2[nH]ccc2c1 (racemic) ... 0.04
O=C(NC1CCC(=Cc2cccc(Oc3ccc(C(F)(F)F)cn3)c2)CC1)c1ccc(Cl)nc1 (racemic) ... 0.04

Entry O=C(NC1CCC(=Cc2cccc(Oc3ccc(C(F)(F)F)cn3)c2)CC1)c1cccnc1 (racemic) , Drug metabolism reported as 0.06
